- MEASURED_ON: E. coli MurC (Escherichia coli, UniProt P17952)
- Sequence (P17952 whole entry): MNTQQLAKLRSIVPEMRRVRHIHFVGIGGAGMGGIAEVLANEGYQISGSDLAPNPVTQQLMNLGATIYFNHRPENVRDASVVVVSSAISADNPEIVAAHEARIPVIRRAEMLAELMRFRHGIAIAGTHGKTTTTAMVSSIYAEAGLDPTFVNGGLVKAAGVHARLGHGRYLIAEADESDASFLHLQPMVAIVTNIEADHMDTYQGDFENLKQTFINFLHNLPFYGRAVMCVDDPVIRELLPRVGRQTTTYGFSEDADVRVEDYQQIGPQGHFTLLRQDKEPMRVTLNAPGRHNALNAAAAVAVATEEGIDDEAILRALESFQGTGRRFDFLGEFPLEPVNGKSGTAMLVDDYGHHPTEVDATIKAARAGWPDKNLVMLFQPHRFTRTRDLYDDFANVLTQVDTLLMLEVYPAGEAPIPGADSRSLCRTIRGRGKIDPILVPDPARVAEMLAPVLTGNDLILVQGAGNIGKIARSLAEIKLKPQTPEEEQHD
- MEASUREMENT_DESCRIPTION: Malachite green inhibition assay, MurC
- Assay type: biochemical
- CONDITION_INFO: 0.25 h, Table S1, PKIS screening; read-out: RA [%] at 100 µM MurC
PROPERTY_MEASURED: remaining activity at 100 µM (%)
API: value field is a number in %; no unit string.

For record Nc1ncnc2occ(-c3ccc(NC(=O)Nc4cc(C(F)(F)F)cc(C(F)(F)F)c4)cc3)c12 [GW795486X] the listed remaining activity at 100 µM is 36

Input Fc1cccc(COc2ccc(Nc3ncncc3C#Cc3ccccc3)cc2Cl)c1 [GW651576X] . Output remaining activity at 100 µM: 44

c1ccc(Cc2nc3ccc(Nc4ncnc5ccccc45)cc3[nH]2)cc1 [GR269666A] yielded remaining activity at 100 µM of 77

# remaining activity at 100 µM (compound: CS(=O)(=O)CCNCc1ccc(-c2ccc3ncnc(Nc4ccc(OCc5ccccc5)c(C(F)(F)F)c4)c3c2)o1 [GW574782A] ) is 83

# remaining activity at 100 µM of CN1CCN(C(=O)c2ccc(NC(=O)Nc3ccc(N(C)c4ccnc(Nc5ccc(CS(C)(=O)=O)cc5)n4)cc3)cc2)CC1 [GW830263A] = 51

remaining activity at 100 µM measured on CCn1c(-c2nonc2N)nc2ccc(F)cc21 [GW785404X] = 100

remaining activity at 100 µM reported for this compound NC(=O)c1sc(-n2cnc3ccccc32)cc1OCc1ccccc1Br [GSK1023156A] : 55

# remaining activity at 100 µM (compound: O=C1Nc2ccccc2/C1=C/Nc1ccc2[nH]c(=O)[nH]c2c1 [GW284408X] ) is 105

###

- MEASURED_ON: E. coli MurC (Escherichia coli, UniProt P17952)
- MEASUREMENT_DESCRIPTION: Malachite green inhibition assay, MurC
- Format: biochemical
- CONDITION_INFO: 0.25 h, Table S1, PKIS screening; read-out: RA [%] at 100 µM MurC
- Procedure: Inhibition of the Mur ligases was determined using the malachite green assay, with slight modifications. In all cases, the final concentration of DMSO was 5% (v/v). After incubation for 15 min at 37 °C, the enzyme reaction was terminated by addition of 100 µM Biomol green reagent, and the absorbance was measured at 650 nm after 5 min. […] Residual activities were calculated with respect to control assays without the tested compounds, but with the 5% DMSO carrier. […]
Label class 1 when remaining activity at 100 µM is strictly below 80%; otherwise label class 0.

Say whether its remaining activity at 100 µM is strictly beneath 80%. Entry: COc1cccc(-n2ncc3c(N/N=C/c4cccc(F)c4)ncnc32)c1 [GW817394X]
class 1

Bench note: check whether CN(C)c1cc2c(Nc3ccc4nc(Cc5ccccc5)[nH]c4c3)ncnc2cn1 [GW301888X] shows remaining activity at 100 µM below 80%
class 0

Problem: For the compound COc1cc2ncnc(Nc3ccc(C)c(O)c3)c2cc1OC [GW410563A] , is remaining activity at 100 µM under 80%?
class 1

Decide: remaining activity at 100 µM of Cn1c(-c2nonc2N)nc2cnccc21 strictly below 80%?
class 1

Is remaining activity at 100 µM of CN(c1ccc(NC(=O)Nc2ccc(OC(F)(F)F)cc2)cc1)c1ccnc(Nc2cccc(S(N)(=O)=O)c2)n1 [GW806742X] strictly below 80%?
class 1

Lab note: confirm whether the reported remaining activity at 100 µM for this compound is below 80%, equality not counting. compound: Cn1cc(C=C2C(=O)Nc3cccnc32)c2ccccc21 [GW441756X]
class 1

Report whether reported remaining activity at 100 µM is lower than 80% (strictly) for O=C1NC(=O)C(N2CCc3ccccc32)=C1c1ccc(Cl)cc1
class 0

Strictly below 80%: is that where remaining activity at 100 µM of COC(=O)c1sc(-n2cnc3cc(OC)c(OC)cc32)cc1OCc1ccccc1C(F)(F)F [GSK1030058A] sits?
class 1

Record OCc1ccc(-c2nc(-c3ccccn3)c(-c3ccc4c(c3)OCO4)[nH]2)cc1 : is its remaining activity at 100 µM strictly below 80%?
class 0

# TODO verify remaining activity at 100 µM < 80% strictly for this compound: COc1ccc2[nH]c3c4[nH]c5ccc(OC)cc5c4c4c(c3c2c1)C(=O)NC4=O [GW296115X]
class 0

Is it true that remaining activity at 100 µM reported for CS(=O)(=O)CCNCc1coc(-c2ccc3ncnc(Nc4ccc(OCc5ccccc5)cc4)c3c2)c1 [GW566221B] is less than 80%?
class 1

Determine if O=C1NC(=O)C(c2ccc(Cl)cc2)=C1Nc1ccc(Cl)c(C(=O)O)c1 shows remaining activity at 100 µM strictly lower than 80%.
class 0

Input CCN(CC)S(=O)(=O)c1ccc(OC)c(Nc2ncc(-c3ccccc3)o2)c1 [GW572401X] ; condition: remaining activity at 100 µM strictly below 80%. Does it hold?
class 1

Problem: For the compound CC(C)c1ccc(Nc2nccc(-c3cnn4ncccc34)n2)cc1 [GW805758X] , is remaining activity at 100 µM under 80%?
class 1

# check: remaining activity at 100 µM < 80% for O=C(Nc1n[nH]c2nc(-c3ccc(O)cc3)c(Br)cc12)C1CC1
class 0

Record Nc1nc(-c2cccc(Cl)c2)c(-c2ccc3ncccc3n2)s1 [GW780159X] : is its remaining activity at 100 µM strictly below 80%?
class 1

Strictly below 80% in remaining activity at 100 µM? COc1cc(/C=N/Nc2ncnc3c2cnn3C(C)C)ccc1O [GW644007X]
class 0

Take the compound CS(=O)(=O)Nc1ccc(-c2ccc3c(NC(=O)C4CC4)n[nH]c3c2)cc1 and say whether its remaining activity at 100 µM is less than 80%.
class 1

Please let me know if CCS(=O)(=O)c1ccc(OC)c(Nc2ncc(-c3cccc(F)c3)o2)c1 [GW621970X] shows remaining activity at 100 µM below 80%.
class 1

Just wondering, is remaining activity at 100 µM of CS(=O)(=O)CCNCc1ccc(-c2ccc3ncnc(Nc4ccc(OCc5ccccc5)c(Br)c4)c3c2)o1 [GW580496A] below 80%?
class 0

State whether 80% exceeds remaining activity at 100 µM recorded for COc1cc2c(cc1Nc1nc(N3CCc4ccccc43)c3cc[nH]c3n1)N(C(=O)CN(C)C)CC2 [GSK2186269A] .
class 1

Is 80% strictly greater than the compound's reported remaining activity at 100 µM? compound: COC(=O)Nc1nc2ccc(Sc3ccc(NC(=O)Nc4cc(C(F)(F)F)ccc4F)cc3)cc2[nH]1 [GW607049C]
class 1

Say whether its remaining activity at 100 µM is strictly beneath 80%. Entry: CCS(=O)(=O)c1ccc(OC)c(Nc2ncc(-c3ccccc3Cl)o2)c1 [GW622055X]
class 1

Lab note: confirm whether the reported remaining activity at 100 µM for this compound is below 80%, equality not counting. compound: O=C1Nc2ccc(I)cc2C1=Cc1cc(Br)c(O)c(Br)c1 [GW305074X]
class 0

Quick check: does CS(=O)(=O)CCN(CC#N)Cc1ccc(-c2ccc3ncnc(Nc4ccc(OCc5cccc(F)c5)c(Cl)c4)c3c2)o1 [GW616030X] have remaining activity at 100 µM under 80%?
class 1

# TODO verify remaining activity at 100 µM < 80% strictly for this compound: Nc1nonc1-c1nc2cnccc2n1C1CCCCC1
class 0

In the record for Cc1cc(-c2ccccn2)cc(C)c1/C=C/c1cncc(-c2nn[nH]n2)c1 [GW459057A] , is remaining activity at 100 µM less than 80%?
class 1

Could you please tell me whether remaining activity at 100 µM recorded for Nc1nccc(-c2c(-c3ccc(F)cc3)ncn2C2CCC(O)CC2)n1 (stereo not drawn) is less than 80%?
class 1

API: query returns whether the compound falls strictly under 80% in remaining activity at 100 µM. Query: COc1cc(Nc2nccc(-c3cnn4ncccc34)n2)cc(OC)c1 [GW801372X]
class 0

Strictly below 80%: is that where remaining activity at 100 µM of NS(=O)(=O)c1cccc(-c2ccc3c(NC(=O)C4CC4)n[nH]c3c2)c1 sits?
class 1

Identify whether the compound COc1cccc(-c2c[nH]c3c(N/N=C/c4ccncc4)ncnc23)c1 [GW814408X] records remaining activity at 100 µM below 80%.
class 0

Field: below-cutoff. Rule: recorded remaining activity at 100 µM strictly less than 80%. Subject: COc1ccc(-c2ccncc2)cc1C(N)=O [GSK605714A]
class 0

# TODO verify remaining activity at 100 µM < 80% strictly for this compound: COC(=O)Nc1nc2ccc(Oc3ccc(NC(=O)Nc4cccc(Br)c4)cc3)cc2[nH]1 [GW694234A]
class 1

Consider Cc1ccc2c(c1)C(=NNc1ccc(S(N)(=O)=O)cc1)C(=O)N2 [GW275944X] . Does its remaining activity at 100 µM lie strictly below 80%?
class 0
